MEASUREMENT_KIND: IC50

Q: // fetch IC50 for COC(=O)C1CCC2CC(O)C1N2c1ccccc1 (configuration not stated) ; system: Sodium-dependent serotonin transporter (Homo sapiens)
Sequence (P31645 whole entry): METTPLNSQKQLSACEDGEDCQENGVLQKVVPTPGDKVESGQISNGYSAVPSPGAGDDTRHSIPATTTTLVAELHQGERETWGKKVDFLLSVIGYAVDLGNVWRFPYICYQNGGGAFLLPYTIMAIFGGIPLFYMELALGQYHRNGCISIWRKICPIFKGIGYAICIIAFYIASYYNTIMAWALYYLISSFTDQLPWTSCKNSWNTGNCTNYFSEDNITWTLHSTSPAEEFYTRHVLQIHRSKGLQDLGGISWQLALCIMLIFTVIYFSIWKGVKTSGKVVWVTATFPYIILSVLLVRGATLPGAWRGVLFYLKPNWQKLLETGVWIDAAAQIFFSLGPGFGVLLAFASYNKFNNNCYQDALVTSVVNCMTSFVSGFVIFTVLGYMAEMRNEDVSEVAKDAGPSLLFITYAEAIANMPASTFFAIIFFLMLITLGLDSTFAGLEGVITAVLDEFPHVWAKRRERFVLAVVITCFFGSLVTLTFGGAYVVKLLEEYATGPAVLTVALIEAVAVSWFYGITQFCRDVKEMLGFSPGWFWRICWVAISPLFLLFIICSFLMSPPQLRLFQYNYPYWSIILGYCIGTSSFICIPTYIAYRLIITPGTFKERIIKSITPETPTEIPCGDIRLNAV
Result: 15 nM

Q: # lookup: Sodium-dependent serotonin transporter (Homo sapiens) IC50, key = COC(=O)C1CCC2CC(O)C1N2c1ccc(Cl)c(Cl)c1 (configuration not stated)
Result: 5650 nM

====

# TARGET_SYSTEM: Sodium-dependent serotonin transporter (Homo sapiens)
MEASUREMENT_KIND: pKi
Quick note: pKi values are minus log10 of concentrations in mol/L.

Q: Report measured pKi; entry is Brc1ccc([C@@H]2CCNC[C@H]2COc2ccc3c(c2)OCO3)cc1
Result: 8.97
